Origin of values: patent US20100286145A1

- target-or-test-system: memapsin 2 (Homo sapiens)
- procedure-summary: Inhibition of memapsin 2 beta-secretase activity (fluorogenic substrate FS-2)
- Type: biochemical
- test-parameters: memapsin 2, pH 4, 37° C., 20 minutes pre-incubation; read-out: M2Ki
pKi: −log10 of the molar value.
Measured pKi by item

// known answers, use as guide
COc1cccc(CNC[C@@H](O)[C@H](Cc2ccccc2)NC(=O)c2cc(C(=O)NCc3nc(C)cs3)cc(N3CCCC3=O)c2)c1 [Compound 199]: < 6.30
Cc1csc(CN(C)C(=O)c2cc(C(=O)N[C@@H](Cc3ccccc3)[C@H](O)CNCc3cncc(C(C)C)c3)cc(N3CCCC3)c2)n1 [Compound 180]: > 6.52
Cc1csc(CN(C)C(=O)c2cc(C(=O)N[C@@H](Cc3ccccc3)[C@H](O)CNCc3cncc(C(C)C)c3)cc(-c3ccncc3)c2)n1 [Compound 205]: > 6.52
Cc1coc(CN(C)C(=O)c2cccc(C(=O)N[C@@H](Cc3ccccc3)[C@H](O)CNCc3cncc(C(C)C)c3)c2)n1 [Compound 95]: > 6.52
CCN(CC)c1cc(C(=O)N[C@@H](Cc2ccccc2)[C@H](O)CNCc2cncc(C(C)C)c2)cc(C(=O)N(C)Cc2nc(C)cs2)c1 [Compound 172]: > 6.52
COc1cccc(CNC[C@@H](O)[C@H](Cc2ccccc2)NC(=O)c2cc(C(=O)N(C)Cc3nc(C)cs3)cc(C(C)(C)C)c2)c1 [Compound 2]: > 6.52

Lab book: pKi of Cc1csc(CN(C)C(=O)c2cc(C(=O)N[C@@H](Cc3ccccc3)[C@H](O)CNCc3cc(C(C)C)nc(N)n3)cc(-c3ncco3)c2)n1 [Compound 177] noted as > 6.52

For Cc1csc(CN(C)C(=O)c2cccc(C(=O)N[C@@H](Cc3ccccc3)[C@H](O)CNCc3cncc(N(C)C)c3)c2)n1 [Compound 47] the molecule record lists pKi as > 6.52

Cc1csc(CN(C)C(=O)c2cccc(C(=O)N[C@@H](Cc3ccccc3)[C@H](O)CNCc3cc(N)cc(C(C)C)c3)c2)n1 [Compound 75] yielded pKi of > 6.52

The recorded pKi for entry COc1cccc(CNC[C@@H](O)[C@H](Cc2ccccc2)NC(=O)c2cccc(C(=O)Nc3nc(C)cs3)c2)c1 [Compound 80] equals < 6.30

Recorded result, CSCc1ccc(CNC[C@@H](O)[C@H](Cc2ccccc2)NC(=O)c2cccc(C(=O)N(C)Cc3nc(C)cs3)c2)nc1C [Compound 87] , pKi: < 6.30

Record Cc1cc(C(=O)N[C@@H](Cc2ccccc2)[C@H](O)CNCc2cncc(C(C)C)c2)cc(C(=O)N(C)Cc2nc(C)cs2)c1 [Compound 32] . Reported pKi: > 6.52

The recorded pKi for COCCn1ncc(CNC[C@@H](O)[C@H](Cc2ccccc2)NC(=O)c2cccc(C(=O)N(C)Cc3nc(C)cs3)c2)c1C [Compound 132] is < 6.30

====

- target-or-test-system: memapsin 2 (Homo sapiens, UniProt P56817)
- Sequence (P56817 46-501): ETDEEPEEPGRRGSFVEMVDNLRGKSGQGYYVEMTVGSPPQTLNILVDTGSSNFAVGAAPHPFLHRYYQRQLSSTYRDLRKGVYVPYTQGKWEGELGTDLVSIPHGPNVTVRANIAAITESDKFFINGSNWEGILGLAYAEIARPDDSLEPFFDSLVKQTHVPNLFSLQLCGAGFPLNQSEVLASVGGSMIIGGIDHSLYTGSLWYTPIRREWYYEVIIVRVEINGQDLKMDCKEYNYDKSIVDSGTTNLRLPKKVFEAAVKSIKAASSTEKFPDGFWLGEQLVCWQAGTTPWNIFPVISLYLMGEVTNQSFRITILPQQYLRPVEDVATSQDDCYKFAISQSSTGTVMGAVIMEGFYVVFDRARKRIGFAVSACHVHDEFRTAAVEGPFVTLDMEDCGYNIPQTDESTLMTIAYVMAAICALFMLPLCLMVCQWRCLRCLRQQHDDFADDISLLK
- procedure-summary: Inhibition of memapsin 2 beta-secretase activity (fluorogenic substrate FS-2)
- Type: biochemical
- test-parameters: memapsin 2, pH 4, 37° C., 20 minutes pre-incubation; read-out: M2Ki
pKi: −log10 of the molar value.
property-label: pKi

Reference set (5 entries):
CCCN(Cc1nc(C)cs1)C(=O)c1cccc(C(=O)N[C@@H](Cc2ccccc2)[C@H](O)CNCc2cccc(OC)c2)c1: > 6.52
C[C@@H](NC(=O)c1cc(C(=O)N[C@@H](Cc2ccccc2)[C@H](O)CNCc2cncc(C(F)(F)F)c2)cc(N(C)S(C)(=O)=O)c1)c1ccccc1: > 6.52
Cc1csc(CN(C)C(=O)c2cccc(C(=O)N[C@@H](Cc3ccccc3)[C@H](O)CNCc3cccc(C(C)(F)F)c3)c2)n1: > 6.52
Cc1csc(CN(C)C(=O)c2cccc(C(=O)N[C@@H](Cc3ccccc3)[C@H](O)CNCc3cccc(C(C)(C)C)c3O)c2)n1: > 6.52
C[C@@H](NC(=O)c1cc(C(=O)N[C@@H](Cc2ccccc2)[C@H](O)CNCc2cccc(C(C)(C)C)c2O)cc(N(C)S(C)(=O)=O)c1)c1ccccc1: > 6.52

In the following, a different molecule is considered.
Entry Cc1csc(CN(C)C(=O)c2cccc(C(=O)N[C@@H](Cc3ccccc3)[C@H](O)CNCc3ccncc3)c2)n1 , pKi reported as < 6.30

====

- procedure-summary: Plasma pharmacokinetic analysis in rats, i.v. bolus
- Format: in vivo
- test-parameters: male, Sprague-Dawley, rat, plasma; rats, single 10 mg/kg intravenous dose; read-out: 24 hr plasma AUC
- Description: Quantitative analysis was used to determine the concentration of a test inhibitor, N1-((2S,3R)-4-((5-(2-fluoropropan-2-yl)pyridin-3-yl)methylamino)-3-hydroxy-1-phenylbutan-2-yl)-N3-methyl-N3-((4-methylthiazol-2-yl)methyl)isophthalamide, in biological tissues. The test inhibitor was extracted from a variety of biological samples followed by its selective identification and quantification from a standard curve prepared in the same extracted biological matrix. […]
property-label: AUC (ng·h/mL)
A number alone suffices; assume ng·h/mL.

AUC reported for this compound Cc1csc(CN(C)C(=O)c2cccc(C(=O)N[C@@H](Cc3ccccc3)[C@H](O)CNCc3cncc(C(C)(C)F)c3)c2)n1 : 2580

====

- target-or-test-system: memapsin 2 (Homo sapiens)
- procedure-summary: Inhibition of memapsin 2 beta-secretase activity (fluorogenic substrate FS-2)
- Assay type: biochemical
- test-parameters: memapsin 2, pH 4, 37° C., fluorogenic substrate FS-2; read-out: M2Ki
property-label: Ki

// known answers, use as guide
Cc1csc(CN(C)C(=O)c2cccc(C(=O)N[C@@H](Cc3ccccc3)[C@H](O)CNCc3cncc(F)c3)c2)n1: < 300 nM
Cc1csc(CN(C)C(=O)c2cc(C(=O)N[C@@H](Cc3ccccc3)[C@H](O)CNCc3cncc(C(C)(F)F)c3)cc(C(F)F)c2)n1: < 300 nM

Here Cc1csc(CN(C)C(=O)c2cccc(C(=O)N[C@@H](Cc3ccccc3)[C@H](O)CNS(=O)(=O)c3cccc(C(F)(F)F)c3)c2)n1 was tested on memapsin 2 (Homo sapiens), and its Ki came to > 501 nM

Entry CC(=O)Oc1cc(CNC[C@@H](O)[C@H](Cc2ccccc2)NC(=O)c2cccc(C(=O)N(C)Cc3nc(C)cs3)c2)cc(C(C)C)c1 : Ki on memapsin 2 (Homo sapiens) = < 300 nM

The reported memapsin 2 (Homo sapiens) Ki of CNS(=O)(=O)c1cc(CNC[C@@H](O)[C@H](Cc2ccccc2)NC(=O)c2cccc(C(=O)N(C)Cc3nc(C)cs3)c2)cc(C(C)C)c1 is < 300 nM

====

- procedure-summary: Plasma pharmacokinetic analysis in rats, i.v. bolus
- Assay type: in vivo
- test-parameters: male, Sprague-Dawley, rat, plasma, iv, 10 mg/kg, rats, i.v. bolus 10 mg/kg; read-out: Plasma Terminal phase t1/2 (converted)
property-label: half-life
A bare number is not enough; add the unit after it.

Sure, the documented half-life for Cc1csc(CN(C)C(=O)c2cccc(C(=O)N[C@@H](Cc3ccccc3)[C@H](O)CNCc3cncc(C(C)(C)F)c3)c2)n1 is 13.1 h

====

- target-or-test-system: memapsin 1 (Homo sapiens, UniProt Q9Y5Z0)
- Sequence (Q9Y5Z0 63-518): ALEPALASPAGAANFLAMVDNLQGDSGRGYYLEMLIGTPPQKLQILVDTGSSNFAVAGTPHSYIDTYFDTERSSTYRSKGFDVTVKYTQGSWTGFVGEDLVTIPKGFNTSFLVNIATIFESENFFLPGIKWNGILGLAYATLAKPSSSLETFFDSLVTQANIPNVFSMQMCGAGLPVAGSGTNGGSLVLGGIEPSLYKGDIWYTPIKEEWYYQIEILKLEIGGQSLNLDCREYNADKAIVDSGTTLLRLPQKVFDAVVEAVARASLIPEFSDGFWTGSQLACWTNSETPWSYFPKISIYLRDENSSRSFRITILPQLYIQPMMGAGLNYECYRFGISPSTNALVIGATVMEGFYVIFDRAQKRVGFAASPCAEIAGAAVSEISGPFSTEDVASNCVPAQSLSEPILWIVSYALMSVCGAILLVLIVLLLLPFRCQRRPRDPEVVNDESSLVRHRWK
- procedure-summary: Inhibition of memapsin 1 beta-secretase activity (substrate peptide ELDLAVEFWHDR, MALDI-TOF)
- Type: biochemical
- test-parameters: read-out: M1Ki
pKi: −log10 of the molar value.
Each record here notes measured pKi.

Some entries whose results are on file:
Cc1csc(CN(C)C(=O)c2cccc(C(=O)N[C@@H](Cc3ccccc3)[C@H](O)CNCc3ccnc(C(C)C)c3)c2)n1 [Compound 33]: 6.30 to 6.52
Cc1csc(CN(C)C(=O)c2cccc(C(=O)N[C@@H](Cc3ccccc3)[C@H](O)CNCc3cc(C(C)C)cc(N(C)C)c3)c2)n1 [Compound 90]: < 6.30
Cc1csc(CN(C)C(=O)c2cc(C(=O)N[C@@H](Cc3ccccc3)[C@H](O)CNCc3cncc(C(C)C)c3)cc(-c3cnco3)c2)n1 [Compound 218]: > 6.52
C[C@@H](NC(=O)c1cc(C(=O)N[C@@H](Cc2ccccc2)[C@H](O)CNCc2cccc(I)c2)cc(N(C)S(C)(=O)=O)c1)c1ccccc1 [Compound 88]: > 6.52
COc1cc(CNC[C@@H](O)[C@H](Cc2ccccc2)NC(=O)c2cccc(C(=O)N(C)Cc3nc(C)cs3)c2)cc(C(=O)O)c1 [Compound 72]: < 6.30

Note: attention shifts to another entry.
Per the record, C[C@@H](NC(=O)c1cc(C(=O)N[C@@H](Cc2ccccc2)[C@H](O)CNCc2cccc(O)c2)cc(N(C)S(C)(=O)=O)c1)c1ccccc1 [Compound 71] has pKi of < 6.30
